molecular target: T1, MBP-scNS3 (Hepatitis C virus genotype 1b, UniProt P26663); assay: In vitro fluorometric assay of NS3 protease catalysis inhibition; assay type: biochemical, Hepatitis C virus (HCV) genotype Ib; settings: 100% minus % catalysis of FIG. 3B; 100 nM MBP-scNS3, 5 μM immobilized substrate, 2.4 or 1.2 μM MBP-scFv
T1 construct: made in house
observable: % inhibition

* scFv 162: NS3-inhibiting single-chain antibody, SEQ ID NO:5; MBP fusion SEQ ID NO:19 (protein, scFv inhibitor) scFv: EVQLQQSGAELVRSGASVKLSCTASGFNIKDYYMHWVKQRPEQGLEWIGWIDPANGNTKYDPKFQGKATITADTSSNTAYLQLSSLTSEDTAVYYCARWDWYFDVWGAGTTVTVSSGGGGSGGGGSGGGGSSVLMTQTPLSLPVSLGDQASISCRSSQSIVHSNGNTYLEWYLQKPGQSPKLLIYKVSNRFSGVPDRFSGSGSGTDFTLKISRVEAEDLGVYYCFQGSHVPWTFGGGTKLELKR | 62%
* scFv 171: NS3-inhibiting single-chain antibody, SEQ ID NO:6; MBP fusion SEQ ID NO:20 (protein, scFv inhibitor) scFv: EVQLQQSGAELVRSGASVKLSCTASGFNIKDYYMHWVKQRPEQGLEWIGWIDPENGDTEYAPKFQGKATMTADTSSNTAYLQLSSLTSEDTAVYYCNAWGGSSDYYAMDYWGQGTSVTVSSGGGGSGGGGSGGGGSDVVMTQTPLSLPVSLGDQASISCRSSQSLVHSNGNTYLHWYLQKPGQSPKLLIYKVSNRFSGVPDRFSGSGSGTDFTLKISRVEAEDLGVYYCFQGSHVPWTFGGGTKLEIKR | 88%
* scFv 148: NS3-inhibiting single-chain antibody, SEQ ID NO:7; MBP fusion SEQ ID NO:21 (protein, scFv inhibitor) scFv: EIQLQQSGAELVKPGASVKLSCTASGFNIKDTFVHWVKQRPEQGLEWIGRIDPANGNTKYDPKFQGKATITAATSSNTAYLQLSSLTSEDTAVYYCATGLDYYAMDYWGQGTSVTVSSGGGGSGGGGSGGGGSDVVMTQTPLSPPVSLGDQASISCRSSQSLVHSNGNTYLHWYLQKPGQSPKLLIYKVSNRFSGVPDRFSGSGSGTDFTLKITRVEAEDLGLYFCSQSTHVPWTFGGGTKLEIKR | 58%
* scFv 10: NS3-inhibiting single-chain antibody, SEQ ID NO:11; MBP fusion SEQ ID NO:25 (protein, scFv inhibitor) scFv: QVQLQQSGAELMKPGASVKISCKATGYTFSNYWIEWVKQRPGHGLEWIGGILPGSGSTNYNEKFKGKATFTADTSSNTAYLQLSSLTSEDTAVYYCNADGPPGFDYWGQGTTLTVSSGGGGSGGGGSGGGGSDVLMTQTPLTLSVTIGQPASISCKSSQSLLDSDGKTYLNWLLQRPGQSPKRLIYLVSKLDSGVPDRFTGSGSGTDFTLKISRVEAEDLGVYYCFQGSHVPFTFGSGTKLEIKR | 62%
* scFv 1: NS3-inhibiting single-chain antibody, SEQ ID NO:1; MBP fusion SEQ ID NO:15 (protein, scFv inhibitor) scFv: EVQLQQSGPELVKPGASVKMSCKASGYTFTDYYIKWVKQSHGKSLEWIGVINPGSGGTNYNEKFKGKATLTADKSSSTAYMQLSSLTSENSAVYFCARRAGTGYYFDYWGQGTTVTVSSGGGGSGGGGSGGGGSDVLMTQTPLSLPVSLGDQASISCRSSQSIVHSNGNTYLEWYLQKPGQSPKLLIYKVSNRFSGVPDRFSGSGSGTDFTLKISRVEAEDLGVYYCFQGSHVPLTFGAGTKLEIKR | 46%
